assay: blockers of Clostridium difficile growth – HTS, primary screen (AID 1259249); details: Clostridium difficile clinical isolate growth, OD600, 24 h; hits give low values; screened at 16 µg/mL (by protocol);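 also: 0% = DMSO wells and -100% = levofloxacin 16 µg/mL wells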
About 220 (0.26%) of roughly 86,000 compounds were called active. What follows is part of a selection rich in actives, with near analogues and random picks from the rest.
QUANTITY_NAME: growth activity, negative = inhibition (%)
The response must be a number in % with no trailing unit.

[[record]]
compound = "CN(C)C(=O)c1ccc(-c2ccc(C3[C@@H]4CN(C(=O)Nc5ccccc5)C[C@H]3N4)cc2)cc1 (stereo partly specified)"
quantity_name = "growth activity, negative = inhibition"
units = "%"
test_result = 4.58


*Q* Please report the measured growth activity, negative = inhibition for CC(=O)Nc1ccc2c(c1)C(=O)N(C)[C@@H]1CC[C@H](CC(=O)NCc3ccccc3)O[C@H]1CO2
*A* 6.07

*Q* State its growth activity, negative = inhibition for this compound: CCCC(=O)N1CC2(CN(C(=O)NC(C)C)C2)c2c([nH]c3cc(OC)ccc23)[C@@H]1CO
*A* -10.9

*Q* Tell me growth activity, negative = inhibition reported for O=C(c1ccncc1)N1C[C@H]2[C@@H](c3ccccc31)[C@H](CO)N2Cc1ccc(F)cc1
*A* -10.6

*Q* Please indicate growth activity, negative = inhibition recorded for COc1ccc(CN(C)C[C@@H]2OCCCC[C@H](C)Oc3ccc(NS(=O)(=O)c4ccc(F)cc4)cc3C(=O)N([C@H](C)CO)C[C@H]2C)cc1
*A* 8.17

*Q* Look up and state reported growth activity, negative = inhibition for COc1cccc(NC(=O)C[C@@H]2CC[C@H]3[C@@H](COc4ccc(NC(=O)C5CCC5)cc4C(=O)N3C)O2)c1
*A* -1.63

----------
growth activity, negative = inhibition values, listed per item
assay: blockers of Clostridium difficile growth – HTS, primary screen (AID 1259249); settings: Clostridium difficile clinical isolate growth, OD600, 24 h; hits give low values; screened at 16 µg/mL (by protocol);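 also: 0% = DMSO wells and -100% = levofloxacin 16 µg/mL wells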
In all, about 86,000 compounds went through this assay and about 220 (0.26%) were called active. The sample as a whole holds a higher share of actives than the screen did.
State the answer as a number, implicitly in %.

Answered cases to consult:
[[record]]
sample_smiles = "C[C@@H]1CCCCO[C@H](CN(C)CC2CCCCC2)[C@H](C)CN([C@H](C)CO)C(=O)c2cc(NS(=O)(=O)c3ccc(F)cc3)ccc2O1"
quantity_name = "growth activity, negative = inhibition"
test_result = 11.3

[[record]]
sample_smiles = "CCNC(=O)C[C@H]1CC[C@@H]2[C@H](COc3ccc(NC(=O)Nc4cccc(Cl)c4)cc3C(=O)N2C)O1"
quantity_name = "growth activity, negative = inhibition"
test_result = -2.43


*Q* Specify measured growth activity, negative = inhibition for C[C@@H]1CN([C@H](C)CO)S(=O)(=O)c2ccc(C3=CCCC3)cc2O[C@H]1CN(C)C(=O)CC1CC1 .
*A* 3.03

*Q* Given C[C@@H]1CN([C@@H](C)CO)C(=O)c2cc(NS(=O)(=O)c3cn(C)cn3)ccc2O[C@@H](C)CCCCO[C@H]1CN(C)S(=O)(=O)c1cccs1 , respond with its growth activity, negative = inhibition.
*A* 1.84

----------
Overview of recorded growth activity, negative = inhibition for various compounds
assay: blockers of Clostridium difficile growth – HTS, primary screen (AID 1259249); settings: Clostridium difficile clinical isolate growth, OD600, 24 h; hits give low values; screened at 16 µg/mL (by protocol);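 also: 0% = DMSO wells and -100% = levofloxacin 16 µg/mL wells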
The campaign covered roughly 86,000 compounds. About 220 (0.26%) were called active. Many of the other results were omitted from the sample, so actives are more common in it than they were.
Respond with the bare value in %.

[[record]]
compound = "CN1C(=O)c2cc(NC(=O)C3CC3)ccc2OC[C@H]2O[C@H](CC(=O)O)CC[C@H]21"
test_result = 3.37

[[record]]
compound = "O=C(C1CCCC1)N1CC(=O)N2[C@H](C1)[C@@H](c1ccc(-c3ccccc3F)cc1)[C@@H]2CO"
test_result = 2.69

[[record]]
compound = "COc1ccccc1NC(=O)N1C[C@H]2[C@@H](c3ccccc31)[C@H](CO)N2Cc1ccc2c(c1)OCO2"
test_result = -2.67

[[record]]
compound = "COc1ccc(C#Cc2cccc(-c3nc(C(=O)O)cc4c3[C@@H](CCO)N(S(=O)C(C)(C)C)C4)c2)cc1OC (some centres not stated)"
test_result = -2.07

[[record]]
compound = "COc1ccc2c3c(n(C)c2c1)[C@@H](CO)N(C(=O)Nc1ccccc1F)CC31CCN(C(=O)c2ccccc2F)CC1"
test_result = -1.72


Continue with the compound presented below.
*Q* Please report growth activity, negative = inhibition for the following compound: Cc1noc(C)c1S(=O)(=O)N(C)C[C@@H]1OCCCC[C@@H](C)Oc2ccc(NC(=O)c3ccccc3)cc2C(=O)N([C@H](C)CO)C[C@H]1C
*A* 5.17

----------
test: blockers of Clostridium difficile growth – HTS, primary screen (AID 1259249); settings: Clostridium difficile clinical isolate growth, OD600, 24 h; hits give low values; screened at 16 µg/mL (by protocol);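 also: 0% = DMSO wells and -100% = levofloxacin 16 µg/mL wells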
The campaign covered roughly 86,000 compounds. About 220 (0.26%) were called active. The sample as a whole holds a higher share of actives than the screen did.
QUANTITY_NAME: growth activity, negative = inhibition (%)
Express it in %; write the number only.

[[record]]
sample_smiles = "COc1cccc(S(=O)(=O)N(C)C[C@@H]2Oc3ncc(-c4cccc(C(=O)N(C)C)c4)cc3C(=O)N([C@H](C)CO)C[C@H]2C)c1"
units = "%"
test_result = -3.2

[[record]]
sample_smiles = "COC(=O)C[C@H]1C[C@H]2c3cc(NC(=O)Nc4ccccc4F)ccc3O[C@H]2[C@H](CO)O1"
units = "%"
test_result = 2.15

[[record]]
sample_smiles = "C[C@@H]1CN([C@@H](C)CO)C(=O)c2cc(NC(=O)Nc3ccc4c(c3)OCO4)ccc2O[C@@H](C)CCCCO[C@H]1CN(C)C(=O)Nc1ccc(C(F)(F)F)cc1"
units = "%"
test_result = 3.76

[[record]]
sample_smiles = "O=C(C[C@H]1CC[C@H]2[C@@H](COC[C@H](O)CN2C(=O)Nc2ccc(Cl)cc2)O1)NCC1CC1"
units = "%"
test_result = 7.11

[[record]]
sample_smiles = "COc1ccc(C#Cc2ccc3c(c2)[C@H]2[C@H](CCN2Cc2nccs2)[C@@H](CO)N3)cc1"
units = "%"
test_result = -3.82

[[record]]
sample_smiles = "COc1ccc(NC(=O)Nc2ccc3c(c2)C(=O)N([C@@H](C)CO)C[C@H](C)[C@H](CN(C)Cc2ccc(C(F)(F)F)cc2)OCCCC[C@H](C)O3)cc1"
units = "%"
test_result = 0.631


API: the following record is the query input.
*Q* Provide measured growth activity, negative = inhibition value, entry: O=C(C[C@H]1CC[C@H]2[C@@H](COC[C@@H](O)CN2CC2CCCC2)O1)NCC1CC1
*A* -1.93

----------
assay: blockers of Clostridium difficile growth – HTS, primary screen (AID 1259249); details: Clostridium difficile clinical isolate growth, OD600, 24 h; hits give low values; screened at 16 µg/mL (by protocol);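 also: 0% = DMSO wells and -100% = levofloxacin 16 µg/mL wells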
In all, about 86,000 compounds went through this assay and about 220 (0.26%) were called active. The entries come from a sample that favours actives as a whole.
QUANTITY_NAME: growth activity, negative = inhibition (%)
Lab book: enter the figure in %, no units written.

[[record]]
sample_smiles = "COCc1cn(CC[C@H]2CC[C@H](NC(=O)Cc3cccnc3)[C@H](CO)O2)nn1"
quantity_name = "growth activity, negative = inhibition"
test_result = 1.58

[[record]]
sample_smiles = "COCc1cn(CC[C@@H]2CC[C@@H](NC(=O)Nc3ccc(C(F)(F)F)cc3)[C@H](CO)O2)nn1"
quantity_name = "growth activity, negative = inhibition"
test_result = 1.56

[[record]]
sample_smiles = "CO[C@H]1O[C@H](CO)[C@@H](OC(=O)Nc2ccc(C(F)(F)F)cc2)[C@H](OC(=O)Nc2ccc3c(c2)OCO3)[C@H]1OC(=O)Nc1ccc2c(c1)OCO2"
quantity_name = "growth activity, negative = inhibition"
test_result = 16.4


Okay, next one:
*Q* Indicate its recorded growth activity, negative = inhibition; the molecule in question is CN1c2ccc(Br)cc2[C@@H]2[C@@H](CCN2S(=O)(=O)c2ccc(F)cc2)[C@@H]1CO
*A* 67.3

----------
assay: blockers of Clostridium difficile growth – HTS, primary screen (AID 1259249); details: Clostridium difficile clinical isolate growth, OD600, 24 h; hits give low values; screened at 16 µg/mL (by protocol);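 also: 0% = DMSO wells and -100% = levofloxacin 16 µg/mL wells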
In all, about 86,000 compounds went through this assay and about 220 (0.26%) were called active. Only a selection was taken, and actives are over-represented in it overall.
// reported growth activity, negative = inhibition per item

Consider the worked cases shown below.
[[record]]
compound = "CO[C@@H]1CN(C)C(=O)c2cc(NC(=O)C3CCCC3)ccc2OC[C@@H](C)N(Cc2ccc(F)cc2)C[C@H]1C"
test_result = "7.43% (inactive)"

[[record]]
compound = "O=C(C[C@@H]1CC[C@H](NS(=O)(=O)c2ccc(F)cc2)[C@@H](CO)O1)NCc1ccccc1F"
test_result = "-8.59% (inactive)"

[[record]]
compound = "COCCNC(=O)C[C@H]1CC[C@@H]2[C@@H](COc3ccc(NC(=O)C4CCOCC4)cc3C(=O)N2C)O1"
test_result = "-4.68% (inactive)"

[[record]]
compound = "Cc1ccccc1S(=O)(=O)NCC[C@@H]1CC[C@H](NC(=O)C2CCC2)[C@@H](CO)O1"
test_result = "2.36% (inactive)"

[[record]]
compound = "CO[C@@H]1CN(C)C(=O)c2cc(NC(=O)Nc3cccc(Cl)c3)ccc2OC[C@@H](C)N(C)C[C@@H]1C"
test_result = "-2.08% (inactive)"


*Q* Identify the reported growth activity, negative = inhibition for the following entry. CCO[C@H]1OC(C(=O)N2CCCCCCC2)=C[C@@H](c2ccc(C(F)(F)F)cc2)[C@@H]1CCCO
*A* 9.8% (inactive)

*Q* For the compound CCCNC(=O)N1CCC2(CC1)CN(C(=O)CN1CCOCC1)[C@H](CO)c1[nH]c3cc(OC)ccc3c12 , report growth activity, negative = inhibition.
*A* 5.44% (inactive)

*Q* Give reported growth activity, negative = inhibition value for CC(=O)N1[C@H](CO)[C@H](c2ccccc2)[C@H]1CN(C(=O)c1ccccc1F)C(C)C
*A* 2.62% (inactive)
